- assay_text: Inhibition of HIV1 reverse transcriptase Y188L mutant infected in human MT4 cells assessed as protection against virus-induced cytotoxicity by MTT assay
property_measured: pEC50
Value format note: pEC50 is -log10 of concentration (mol/L); just state the number.

Request: Query (compound): Cc1cc(C#N)cc(C)c1Oc1nc(NC2CCN(Cc3ccc(S(N)(=O)=O)cc3)CC2)nc2cc[nH]c12 ; field requested: pEC50
Result: 8.14

---

- assay_text: Inhibition of HIV1 reverse transcriptase F227L/V106A double mutant infected in human MT4 cells assessed as protection against virus-induced cytotoxicity by MTT assay
property_measured: pEC50
Just the number, please; pEC50 means minus log10 of the concentration in mol/L.

Request: I have this compound here, Cc1cc(C#N)cc(C)c1Oc1nc(NC2CCN(Cc3ccc(S(N)(=O)=O)cc3)CC2)nc2cc[nH]c12 , and I need its recorded pEC50.
Result: 7.74
